system_tested: T1, human IL-17A (human, UniProt Q16552 24-155)
T1 construct: Recombinant; biotinylated in the ELISA; also called hIL-17; hIL17A
test_summary: hIL17A ELISA
quantity_kind: pEC50
A value of pEC50 is the negative decimal logarithm of a concentration given in moles per litre.

binder: IL17-h5C5.21 (antibody, V domains shown, IgG; constant regions not specified; also called h5C5.21 (VH.1b-Vk.3c)) VH: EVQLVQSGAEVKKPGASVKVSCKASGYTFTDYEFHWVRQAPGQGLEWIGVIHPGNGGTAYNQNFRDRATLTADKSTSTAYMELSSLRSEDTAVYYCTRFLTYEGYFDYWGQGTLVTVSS VL: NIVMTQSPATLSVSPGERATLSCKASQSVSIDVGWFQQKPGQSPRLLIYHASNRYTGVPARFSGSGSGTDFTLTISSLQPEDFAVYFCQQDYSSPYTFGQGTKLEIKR
pEC50: 10.52

Then there is this binder:
Data request, read-out pEC50, for IL17-h10F7.8 (antibody, V domains shown, IgG; constant regions not specified) VH: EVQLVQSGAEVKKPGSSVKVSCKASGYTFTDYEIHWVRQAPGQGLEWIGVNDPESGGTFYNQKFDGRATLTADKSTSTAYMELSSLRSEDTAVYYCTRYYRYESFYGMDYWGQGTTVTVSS VL: EIVLTQSPDFQSVTPKEKVTITCSASSSISYIYWYQQKPDQSPKLLIKATFELASGVPSRFSGSGSGTDFTLTINSLEAEDAATYYCHQRSSYPWTFGQGTKLEIKR
8.41
